Reported CC50 values for a set of compounds
System: 786-0
runParameters: read-out: LC50; 786-0 (Renal Cancer), 48 hours, SRB
# value in µM; strip the unit string

Q: Write down measured CC50 (786-0) for this compound. CC1(C)C=Cc2c(ccc3c4c(n(O)c23)C(C)(C)C2CC35CCCN3C(=O)C2(NC5=O)C4SCC(NC(=O)CCC(N)C(=O)O)C(=O)NCC(=O)O)O1 (centres unmarked)
Ans: 6.03

Shifting focus to the compound that follows.
Q: Write down measured CC50 (786-0) for this compound. CN(C)c1cccc2c(S(=O)(=O)NCCCCCCCCCCOc3ccc4c(c3)[N+]([O-])=C3C4=C[C@@]45NC(=O)C6(CCCN6C4=O)CC5C3(C)C)cccc12 (some centres unmarked)
Ans: 5.21

###

Test system: SK-MEL-5
runParameters: SK-MEL-5 (Melanoma), 48 hours, SRB
Reported TGI values for a set of compounds

Q: Give the value of TGI reported for the following: CN(C)c1cccc2c(S(=O)(=O)NCCCCCCCCCCOc3ccc4c(c3)[N+]([O-])=C3C4=C[C@@]45NC(=O)C6(CCCN6C4=O)CC5C3(C)C)cccc12 (stereo partly shown)
Ans: 1470 nM

Q: Give the value of TGI reported for the following: CC1(C)C=Cc2c(ccc3c4c(n(O)c23)C(C)(C)C2CC35CCCN3C(=O)C2(NC5=O)C4SCC(NC(=O)CCC(N)C(=O)O)C(=O)NCC(=O)O)O1 (stereo not shown)
Ans: 1860 nM

Q: Give the value of TGI reported for the following: [2H]On1c2c(c3ccc4c(c31)C=CC(C)(C)O4)C(OC([2H])([2H])[2H])[C@@]13NC(=O)C4(CCCN4C1=O)CC3C2(C)C (stereo partly shown)
Ans: 2710 nM

Shifting focus to the compound that follows.
Q: Give the value of TGI reported for the following: Cc1cc(C)cc(-c2ccc3c(c2)[N+]([O-])=C2C3=C[C@@]34NC(=O)C5(CCCN5C3=O)CC4C2(C)C)c1 (stereo partly shown)
Ans: 324 nM

###

Reported CC50 values for a set of compounds
System: NCI-H522
runParameters: read-out: LC50; NCI-H522 (Non-Small Cell Lung Cancer), 48 hours, SRB
# value in µM; strip the unit string

Q: Give the value of CC50 reported for the following: CN(C)c1cccc2c(S(=O)(=O)NCCCCCCCCCCOc3ccc4c(c3)[N+]([O-])=C3C4=C[C@@]45NC(=O)C6(CCCN6C4=O)CC5C3(C)C)cccc12 (some centres unmarked)
Ans: 8.89

Shifting focus to the compound that follows.
Q: Give the value of CC50 reported for the following: CC1(C)C=Cc2c(ccc3c4c(n(O)c23)C(C)(C)C2CC35CCCN3C(=O)C2(NC5=O)C4SCC(NC(=O)CCC(N)C(=O)O)C(=O)NCC(=O)O)O1 (centres unmarked)
Ans: 6.29

###

Reported CC50 values for a set of compounds
System: IGROV1
runParameters: read-out: LC50; IGROV1 (Ovarian Cancer), 48 hours, SRB
# value in µM; strip the unit string

Q: Give the value of CC50 reported for the following: CC1(C)C=Cc2c(ccc3c4c(n(O)c23)C(C)(C)C2CC35CCCN3C(=O)C2(NC5=O)C4SCC(NC(=O)CCC(N)C(=O)O)C(=O)NCC(=O)O)O1 (centres unmarked) [Glutathione Adduct]
Ans: 11.9

Shifting focus to the compound that follows.
Q: Give the value of CC50 reported for the following: CN(C)c1cccc2c(S(=O)(=O)NCCCCCCCCCCOc3ccc4c(c3)[N+]([O-])=C3C4=C[C@@]45NC(=O)C6(CCCN6C4=O)CC5C3(C)C)cccc12 (some centres unmarked) [Dansyl Analogue]
Ans: 3.39

###

Test system: A498
runParameters: A498 (Renal Cancer), 48 hours, SRB
measureName: TGI (nM)
# value in nM; strip the unit string

Q: Give the value of TGI reported for the following: CN(C)c1cccc2c(S(=O)(=O)NCCCCCCCCCCOc3ccc4c(c3)[N+]([O-])=C3C4=C[C@@]45NC(=O)C6(CCCN6C4=O)CC5C3(C)C)cccc12 (stereo partly shown)
Ans: 1010

Q: Give the value of TGI reported for the following: [2H]On1c2c(c3ccc4c(c31)C=CC(C)(C)O4)C(OC([2H])([2H])[2H])[C@@]13NC(=O)C4(CCCN4C1=O)CC3C2(C)C (stereo partly shown)
Ans: 2220

Q: Give the value of TGI reported for the following: Cc1cc(C)cc(-c2ccc3c(c2)[N+]([O-])=C2C3=C[C@@]34NC(=O)C5(CCCN5C3=O)CC4C2(C)C)c1 (stereo partly shown)
Ans: 1320

Shifting focus to the compound that follows.
Q: Give the value of TGI reported for the following: CC1(C)C=Cc2c(ccc3c4c(n(O)c23)C(C)(C)C2CC35CCCN3C(=O)C2(NC5=O)C4SCC(NC(=O)CCC(N)C(=O)O)C(=O)NCC(=O)O)O1 (stereo not shown)
Ans: 1830

###

Test system: T-47D
runParameters: T-47D (Breast Cancer), 48 hours, SRB
measureName: TGI (nM)
# value in nM; strip the unit string

# annotated cases, reported TGI shown
Q: Give the value of TGI reported for the following: [2H]On1c2c(c3ccc4c(c31)C=CC(C)(C)O4)C(OC([2H])([2H])[2H])[C@@]13NC(=O)C4(CCCN4C1=O)CC3C2(C)C (stereo partly shown) [Deuterated Methanol Adduct]
Ans: 1380

Q: Give the value of TGI reported for the following: Cc1cc(C)cc(-c2ccc3c(c2)[N+]([O-])=C2C3=C[C@@]34NC(=O)C5(CCCN5C3=O)CC4C2(C)C)c1 (stereo partly shown) [Biphenyl Analogue]
Ans: 330

Others:
Q: Give the value of TGI reported for the following: CN(C)c1cccc2c(S(=O)(=O)NCCCCCCCCCCOc3ccc4c(c3)[N+]([O-])=C3C4=C[C@@]45NC(=O)C6(CCCN6C4=O)CC5C3(C)C)cccc12 (stereo partly shown) [Dansyl Analogue]
Ans: 572

Q: Give the value of TGI reported for the following: CC1(C)C=Cc2c(ccc3c4c(n(O)c23)C(C)(C)C2CC35CCCN3C(=O)C2(NC5=O)C4SCC(NC(=O)CCC(N)C(=O)O)C(=O)NCC(=O)O)O1 (stereo not shown) [Glutathione Adduct]
Ans: 2470

###

Test system: LOX IMVI
runParameters: LOX IMVI (Melanoma), 48 hours, SRB
measureName: TGI (nM)
# value in nM; strip the unit string

# annotated cases, reported TGI shown
Q: Give the value of TGI reported for the following: CN(C)c1cccc2c(S(=O)(=O)NCCCCCCCCCCOc3ccc4c(c3)[N+]([O-])=C3C4=C[C@@]45NC(=O)C6(CCCN6C4=O)CC5C3(C)C)cccc12 (stereo partly shown)
Ans: 310

Q: Give the value of TGI reported for the following: [2H]On1c2c(c3ccc4c(c31)C=CC(C)(C)O4)C(OC([2H])([2H])[2H])[C@@]13NC(=O)C4(CCCN4C1=O)CC3C2(C)C (stereo partly shown)
Ans: 2140

Q: Give the value of TGI reported for the following: Cc1cc(C)cc(-c2ccc3c(c2)[N+]([O-])=C2C3=C[C@@]34NC(=O)C5(CCCN5C3=O)CC4C2(C)C)c1 (stereo partly shown)
Ans: 273

Shifting focus to the molecule that follows.
Q: Give the value of TGI reported for the following: CC1(C)C=Cc2c(ccc3c4c(n(O)c23)C(C)(C)C2CC35CCCN3C(=O)C2(NC5=O)C4SCC(NC(=O)CCC(N)C(=O)O)C(=O)NCC(=O)O)O1 (stereo not shown)
Ans: 1560

###

System: UO-31
runParameters: UO-31 (Renal Cancer), 48 hours, SRB
measureName: TGI (nM)
# value in nM; strip the unit string

Q: Give the value of TGI reported for the following: CN(C)c1cccc2c(S(=O)(=O)NCCCCCCCCCCOc3ccc4c(c3)[N+]([O-])=C3C4=C[C@@]45NC(=O)C6(CCCN6C4=O)CC5C3(C)C)cccc12 (stereo partly shown) [Dansyl Analogue]
Ans: 2080

Others:
Q: Give the value of TGI reported for the following: [2H]On1c2c(c3ccc4c(c31)C=CC(C)(C)O4)C(OC([2H])([2H])[2H])[C@@]13NC(=O)C4(CCCN4C1=O)CC3C2(C)C (stereo partly shown) [Deuterated Methanol Adduct]
Ans: 1840

Q: Give the value of TGI reported for the following: CC1(C)C=Cc2c(ccc3c4c(n(O)c23)C(C)(C)C2CC35CCCN3C(=O)C2(NC5=O)C4SCC(NC(=O)CCC(N)C(=O)O)C(=O)NCC(=O)O)O1 (stereo not shown) [Glutathione Adduct]
Ans: 4070

Q: Give the value of TGI reported for the following: Cc1cc(C)cc(-c2ccc3c(c2)[N+]([O-])=C2C3=C[C@@]34NC(=O)C5(CCCN5C3=O)CC4C2(C)C)c1 (stereo partly shown) [Biphenyl Analogue]
Ans: 731
